The compounds listed here are annotated with their Biofilm formation, log reduction.
# System: Biofilm formation
# PROTOCOL SUMMARY: Inhibition of biofilm formation by selenium compounds (Example 4)
# Type: cell-based
Express your answer in logs, writing the number without its unit.

Recorded Biofilm formation, log reduction, per entry:
# COMPOUND, Biofilm formation, log reduction [logs]
data = [
    ("NCC[Se-].[Na+] [Sodium 1-amino,2-seleno ethane]", 3),
    ("C=C(C)C(=O)OCCOC(=O)CC(C)OC(=O)CC[Se][Se]CCC(=O)OC(C)CC(=O)OCCOC(=O)C(=C)C (stereo not shown)", 8),
    ("N#C[Se]CCN", 5),
    ("CC(O)C(O)[Se]C#N (stereo not shown) [1-selenocyanato,2-hydroxy propanol]", 8),
    ("Cl.Cl.NCC[Se][Se]CCN [Selenocystamine 2HCl]", 5),
    ("c1ccc([Se][Se]c2ccccc2)cc1 [1,2-Bis(phenyl)diselenide]", 8),
]

Shifting focus to the compound that follows.
Request: Look at this compound and give its reported Biofilm formation, log reduction. CC(NC(=O)OCC1c2ccccc2-c2ccccc21)[Se]C#N (stereo not shown)
Response: 8
